TESTED_SYSTEM: Protein deacetylase HDAC6 (Homo sapiens)
PARTICULARS: at 10 µM
Among all 5,600 compounds or so, about 390 (7%) showed an effect of 50% or more. The list comes from a sample in which strong results are over-represented; it also holds close analogues and randomly drawn compounds.
PROPERTY_NAME: inhibition (%)
Response body: numeric value in %, unit text excluded.

Take a look at these entries with their results.
MOLECULE	inhibition [%]
Oc1ccc2ccccc2c1SSc1c(O)ccc2ccccc12	0.31
OCc1cc([C@@H](O)CNCCCCCCOCCOCc2c(Cl)cccc2Cl)ccc1O	59.3
CN(C)c1ccc(/C=C2\C(=O)Nc3ccccc32)cc1	101
O=S(=O)(c1cccc2c(O)nccc12)N1CCCNCC1	9.53
CC(C(=O)O)c1ccc(N2Cc3ccccc3C2=O)cc1 (stereo not drawn)	94.7

I'd like to know its inhibition. The molecule in question is "COc1cc(N2CCC(O)CC2)ccc1Nc1cc(Nc2ccccc2S(=O)(=O)C(C)C)c2cc[nH]c2n1"
12.8

Try CC(C(=O)O)c1ccc(C(=O)c2cccs2)cc1 (stereo not drawn) next.
-7.49

Try CC(C(=O)O)c1ccc2c(c1)CC(=O)c1ccccc1S2 (stereo not drawn) next.
-3.14

====

Listing: inhibition of selected compounds
TESTED_SYSTEM: Protein deacetylase HDAC6 (Homo sapiens)
PARTICULARS: at 10 µM
The whole screen tested about 5,600 compounds, of which about 390 (7%) showed an effect of 50% or more. Many of the other results were omitted from the sample, so strong results are more common in it than they were.
Response body: numeric value in %, unit text excluded.

STRUCTURE_STRING	UNIT_SYMBOL	inhibition
CCCCC(=O)O[C@]1(C(=O)CO)CC[C@H]2[C@@H]3CCC4=CC(=O)CC[C@]4(C)[C@H]3[C@@H](O)C[C@@]21C	%	55.9
CCN(CC)CCCCN1c2ccccc2Oc2ccc(Cl)cc21	%	22.7

Read the next record carefully.
I'd like to know its inhibition. The compound in question is "O=C1NC(=O)C(c2ccccc2[N+](=O)[O-])=C1Nc1ccc(O)c(Cl)c1"
3.99

====

Listing: inhibition of selected compounds
TESTED_SYSTEM: Protein deacetylase HDAC6 (Homo sapiens)
PARTICULARS: at 10 µM
Out of some 5,600 compounds screened, about 390 (7%) showed an effect of 50% or more. The entries come from a sample that favours strong results as a whole.
Response body: numeric value in %, unit text excluded.

STRUCTURE_STRING	QUANTITATIVE_RESULT
N[C@H](C(=O)O)c1ccc(O)c(C(=O)O)c1	-8.79
Nc1ccc(-c2nc3ccc(-c4nc5ccc(N)cc5[nH]4)cc3[nH]2)cc1	61.9

Read the next record carefully.
Reported inhibition for Protein deacetylase HDAC6 (Homo sapiens), given "CC(C)c1ccc2oc3nc(N)c(C(=O)O)cc3c(=O)c2c1" ?
98.2

====

TESTED_SYSTEM: Protein deacetylase HDAC6 (Homo sapiens) (UniProt Q9UBN7)
Sequence (Q9UBN7 whole entry): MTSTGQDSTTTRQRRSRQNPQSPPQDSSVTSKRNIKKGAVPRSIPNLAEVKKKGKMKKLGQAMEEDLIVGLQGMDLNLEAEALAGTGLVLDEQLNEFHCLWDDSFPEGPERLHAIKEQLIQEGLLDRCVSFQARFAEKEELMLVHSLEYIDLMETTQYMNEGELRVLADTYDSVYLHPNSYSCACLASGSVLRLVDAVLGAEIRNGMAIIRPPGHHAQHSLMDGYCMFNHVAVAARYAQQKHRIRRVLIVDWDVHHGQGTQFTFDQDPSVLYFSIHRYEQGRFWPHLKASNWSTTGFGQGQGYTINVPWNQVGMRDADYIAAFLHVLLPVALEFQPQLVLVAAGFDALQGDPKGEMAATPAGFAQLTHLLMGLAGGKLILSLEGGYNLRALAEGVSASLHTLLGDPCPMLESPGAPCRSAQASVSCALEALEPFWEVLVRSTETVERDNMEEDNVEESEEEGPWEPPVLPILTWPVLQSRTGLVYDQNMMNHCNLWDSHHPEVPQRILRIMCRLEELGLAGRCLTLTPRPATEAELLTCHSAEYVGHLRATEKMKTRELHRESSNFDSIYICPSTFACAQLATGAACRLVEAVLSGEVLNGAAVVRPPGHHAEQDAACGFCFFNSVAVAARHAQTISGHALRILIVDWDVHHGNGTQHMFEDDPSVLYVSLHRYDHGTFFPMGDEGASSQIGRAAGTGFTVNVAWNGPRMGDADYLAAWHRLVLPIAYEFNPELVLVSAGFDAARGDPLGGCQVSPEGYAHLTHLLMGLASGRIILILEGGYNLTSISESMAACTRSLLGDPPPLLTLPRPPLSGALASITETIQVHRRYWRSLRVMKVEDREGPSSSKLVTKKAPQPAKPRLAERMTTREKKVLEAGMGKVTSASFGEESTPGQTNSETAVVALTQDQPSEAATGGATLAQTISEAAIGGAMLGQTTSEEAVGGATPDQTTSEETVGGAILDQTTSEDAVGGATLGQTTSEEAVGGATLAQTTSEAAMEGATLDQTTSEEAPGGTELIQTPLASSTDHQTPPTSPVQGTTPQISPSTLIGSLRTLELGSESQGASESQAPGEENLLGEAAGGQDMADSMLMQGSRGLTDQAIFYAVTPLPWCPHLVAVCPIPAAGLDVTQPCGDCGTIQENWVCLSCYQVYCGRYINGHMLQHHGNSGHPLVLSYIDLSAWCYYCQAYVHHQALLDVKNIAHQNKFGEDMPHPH
PARTICULARS: at 10 µM
Out of some 5,600 compounds screened, about 390 (7%) showed an effect of 50% or more. Only a selection was taken, and strong results are over-represented in it overall.
PROPERTY_NAME: inhibition
Show the value, then the unit it is measured in.

COMPOUND	PROPERTY_NAME	RESULT
C=C1C(=O)O[C@H]2[C@H]1CC/C(C)=C\CC[C@@]1(C)O[C@@H]21	inhibition	9.8%
C#C[C@]1(O)CC[C@H]2[C@@H]3CCC4=CC(=O)CC[C@@H]4[C@H]3CC[C@@]21CC	inhibition	-8.51%
CCOC(=O)COc1ccc2c(c1)C[C@@H](NC[C@H](O)c1cccc(Cl)c1)CC2	inhibition	16.8%

Read the next record carefully.
Reported inhibition for Protein deacetylase HDAC6 (Homo sapiens) (UniProt Q9UBN7), given C=CCSCC1Nc2cc(Cl)c(S(N)(=O)=O)cc2S(=O)(=O)N1 (configuration not stated) ?
12%

====

TESTED_SYSTEM: Protein deacetylase HDAC6 (Homo sapiens)
PARTICULARS: at 10 µM
Screen size: about 5,600 compounds; about 390 (7%) showed an effect of 50% or more. This excerpt belongs to a sample that is enriched for strong results.
PROPERTY_NAME: inhibition (%)
Response body: numeric value in %, unit text excluded.

Take a look at these entries with their results.
MOLECULE	inhibition (%)
CC(=O)NC[C@H]1CN(c2ccc(-c3ccc(CNCc4cnn[nH]4)cc3)c(F)c2)C(=O)O1	35.9
COc1cc2c(=O)c(-c3ccc(O)cc3)coc2cc1O	98.7
CN(C)CCC=C1c2ccccc2C=Cc2ccccc21	63.9

Reported inhibition for Protein deacetylase HDAC6 (Homo sapiens), given "COc1cc(C=O)ccc1O" ?
-4.44

Try CC(O)C(N)C(=O)O (stereo unspecified) next.
8.96

Try "C=CCNC(=O)c1cc([N+](=O)[O-])cc2c(=O)[nH]c(Nc3ccc(Cl)c(Cl)c3)nc12" next.
17.8

Try "CO[C@@H]1COCC[C@@H]1N[C@@H]1CC[C@@](C(=O)N2CCc3ncc(C(F)(F)F)cc3C2)(C(C)C)C1" next.
41.3

Try O=c1c(-c2ccc(O)cc2)coc2c(C3OC(CO)C(O)C(O)C3O)c(O)ccc12 (stereo unspecified) next.
5.48

====

Listing: inhibition of selected molecules
TESTED_SYSTEM: Protein deacetylase HDAC6 (Homo sapiens)
PARTICULARS: at 10 µM
Screen size: about 5,600 compounds; about 390 (7%) showed an effect of 50% or more. The entries come from a sample that favours strong results as a whole.
Response body: numeric value in %, unit text excluded.

I'd like to know its inhibition. The molecule in question is "Fc1ccc(CNc2ncnc3ccc(F)cc23)cc1"
-3.85

====

TESTED_SYSTEM: Protein deacetylase HDAC6 (Homo sapiens)
PARTICULARS: at 10 µM
Among all 5,600 compounds or so, about 390 (7%) showed an effect of 50% or more. What follows is part of a selection rich in strong results, with near analogues and random picks from the rest.
Rule: inhibition under 10% gives n, otherwise y.

COMPOUND	CLASS_LABEL
Cc1cc(C)n(-c2cccc([C@H](CC(=O)O)CN3CC[C@@H](CCc4ccc5c(n4)NCCC5)C3)c2)n1	n

Check the entry "CN[C@@H](C)[C@H]1[C@H](O)C[C@@]2(C)[C@@H]3CC[C@H]4C(C)(C)[C@@H](NC)CC[C@@]45C[C@@]35CC[C@]12C" : does inhibition equal or exceed 10%?
n

Try "Nc1ncnc2c1ncn2[C@H]1CC[C@@H](CO)O1" next.
y

Try "Sc1nc2ccccc2s1" next.
y

Try "c1ccc(-c2ccc(CNc3nc(-c4ccccn4)nnc3-c3ccccc3)cc2)cc1" next.
y

Try "O=C(O)c1cc2occc2[nH]1" next.
y

Try "Nc1nncs1" next.
n

Try "O=c1c2ccccc2oc2ccccc12" next.
y

Try CCC(c1ccccc1)c1c(O)c2ccccc2oc1=O (stereo unspecified) next.
y

Try "C[C@@H]1CN(Cc2ncccn2)C[C@H]1c1nc2c(cnn2C2CCOCC2)c(=O)[nH]1" next.
n

Try "Cc1cc(C)c2nc(-c3ccccn3)cc(C(=O)Nc3ccc(S(=O)(=O)Nc4onc(C)c4C)cc3)c2c1" next.
n

====

TESTED_SYSTEM: Protein deacetylase HDAC6 (Homo sapiens)
PARTICULARS: at 10 µM
Among all 5,600 compounds or so, about 390 (7%) showed an effect of 50% or more. The sample as a whole holds a higher share of strong results than the screen did.
Listing: inhibition of selected compounds
Show the value, then the unit it is measured in.

COMPOUND	inhibition
C=C(C)[C@@H]1CC[C@]2(C(=O)O)CC[C@]3(C)[C@H](CC[C@@H]4[C@@]5(C)CC[C@H](OC(=O)CC(C)(C)C(=O)O)C(C)(C)[C@@H]5CC[C@]43C)[C@@H]12	26.3%
COc1ccc(-c2cc(=O)c3c(O)cc(O[C@@H]4O[C@H](CO[C@@H]5O[C@@H](C)[C@H](O)[C@@H](O)[C@H]5O)[C@@H](O)[C@H](O)[C@H]4O)cc3o2)cc1O	30.2%
Cc1nc2ccc(Oc3ccc(F)cc3)cc2c(=O)n1C[C@H]1CCCN(C(C)C)C1	7.87%

Read the next record carefully.
I'd like to know its inhibition. The compound in question is "O=C(O)CNC(=O)c1ccccc1"
17.6%

====

TESTED_SYSTEM: Protein deacetylase HDAC6 (Homo sapiens) (UniProt Q9UBN7)
PARTICULARS: at 10 µM
Among all 5,600 compounds or so, about 390 (7%) showed an effect of 50% or more. The list comes from a sample in which strong results are over-represented; it also holds close analogues and randomly drawn compounds. Non-standard residues stand in square brackets, D forms with d. Residues, ends and D or L forms follow the SMILES beside them.
Listing: inhibition of selected compounds
Response body: numeric value in %, unit text excluded.

Take a look at these entries with their results.
COMPOUND	UNIT_SYMBOL	QUANTITATIVE_RESULT
O=C(O)CCCCCCCC(=O)O	%	29.8
O=C(Nc1ccc(OC(F)(F)F)cc1)c1sccc1NCc1ccnc2ccccc12	%	18.5
COc1c(Nc2ccc(S(C)(=O)=O)nc2C)ncnc1OC1CCN(C(=O)OC(C)C)CC1	%	42.5
Cc1onc(-c2c(Cl)cccc2Cl)c1C(=O)N[C@@H]1C(=O)N([C@@H](C(=O)O)C(C)(C)C)[C@@H]1S	%	-9.26
CN(C)CCOC1=Cc2ccccc2Sc2ccc(Cl)cc21	%	96.6
COc1ccc2[nH]c3c(-c4cccc5ccccc45)nccc3c2c1	%	9.67
Nc1nc(NCCc2ccc(O)cc2)nc2nc(-c3ccco3)nn12	%	67.5
CC(CNS(=O)(=O)C(C)C)c1ccc(-c2ccc(C#N)cc2)cc1 (stereo not drawn)	%	23.9
O=C(CCCCCCC(=O)NO)NO	%	99.2
COc1ccc(-c2sc(NC(=O)C(C)(C)C)nc2C)cc1S(=O)(=O)Nc1ccc(O)cc1	%	-1.39

I'd like to know its inhibition. The compound in question is "CCCC(=O)C1(c2ccccc2)CCN(C(=O)[C@@H](Cc2ccc(OC)cc2)NC(=O)[C@@H](N)Cc2cncn2C)CC1"
4.5

Try "O=C(c1c(O)nc2cc(Cl)ccc2c1O)C1CC1" next.
-2.41

Try CC(=O)NCC(=O)N[C@H](CCC(=O)O)C(=O)O (Ac-Gly-[dE]-OH) next.
1.3
